# ASSAY_DETAILS: Clearance in Sprague-Dawley rat at 1 mg/kg, iv
# Type: ADME, organism-based
# Parameters: dose 1 mg/kg, route intravenous
# ASSAY_CONDITIONS: in vivo
MEASURED_ENDPOINT: clearance (mL/min/kg)
Only the number, expressed in mL/min/kg, is required.

Using the record for "Cc1cc(Nc2ccc(C(F)(F)F)cc2)n2nc(C(C)(F)F)nc2n1" , report its clearance.
23.2

----------
# ASSAY_DETAILS: Oral bioavailability in Sprague-Dawley rat at 18.8 mg/kg
# Assay type: ADME, organism-based
# ASSAY_CONDITIONS: in vivo
MEASURED_ENDPOINT: bioavailability (%)
Only the number, expressed in %, is required.

Using the record for Cc1cc(Nc2ccc(S(F)(F)(F)(F)F)cc2)n2nc(C(C)(F)F)nc2n1 [DSM-265] , report its bioavailability.
57
